System: NCI-H23 lung
Test: NCI-60 one-dose screen, 48 h
Details: 10 µM unless noted
Experimental: Growth inhibition of the NCI-H23 human Non-Small Cell Lung tumor cell line is measured as a screen for anti-cancer activity. Cells are grown in 96 well plates and exposed to the test compound for 48 hours. Compounds are tested at a single concentration, which is 10^-5 M for most compounds. The reported endpoint is percent growth (GI% or GIPRCNT), where numbers from 0 - 100% represent growth inhibition, and numbers from -100% - 0 represent cell death. […]
Compounds without any hit were thinned out: in the full panel of roughly 83,000, 20% have a hit. Active and inactive are the calls of the source. How the source made its calls: active means growth percent below 10; inactive means the rest.
Your answer must be one of the following: active, inactive

Query: I'd appreciate the recorded outcome for CS(=O)(=O)c1ccc(NC(=O)c2ccccc2)nc1 from this test.
Reply: inactive

Query: GET /call?item= CC1(C)[C@@H](O[C@@H]2OC[C@@H](O[C@@H]3O[C@H](CO)[C@@H](O)[C@H](O)[C@H]3O[C@@H]3OC[C@@H](O)[C@H](O)[C@H]3O)[C@H](O)[C@H]2O[C@@H]2O[C@H](CO)[C@@H](O)[C@H](O)[C@H]2O)CC[C@]2(C)[C@H]3CC[C@]45OC[C@@]6(CC[C@](C)(C=O)C[C@H]64)[C@H](O)C[C@@]5(C)[C@]3(C)CC[C@@H]12 returns the recorded outcome of this test.
Reply: active

Query: In this assay, the call recorded for Nc1nc2c(c3ncccc13)C(c1cccc(Cl)c1)Cc1ncccc1-2 (stereo not drawn) was what?
Reply: inactive

Query: I would be grateful if you could indicate the recorded call for CC1(C)NCCC[C@]2(C)[C@H]3CC[C@H]4[C@H]5[C@H](C(=O)/C=C/c6cccnc6)CCC[C@]5(CO)CC[C@@]4(C)[C@]3(C)CC[C@@H]12 .
Reply: inactive

Query: Returns: the outcome recorded for CCCn1cnc2c(c1=N)C(c1ccc(F)cc1)c1sc3c(F)cccc3c1O2 (stereo not drawn) in this assay.
Reply: inactive

Query: Recorded call for CCCCNc1nnc2n(Cc3ccccc3)c(=O)c3c4c(sc3n12)CCCC4 ?
Reply: inactive

More entries:
Query: Called result for C=CCOC(=O)C1=C(C)N(CC)C(=O)NC1c1c(Cl)n(C)c2ccccc12 (stereo not drawn)
Reply: inactive

Query: Per the records of this test, what outcome belongs to COC(=O)C(Cc1ccccc1)NC(=O)c1ccc(NC(=O)c2[nH]c(C)c(Cl)c2Cl)c(OC(C)C)c1 (stereo not drawn) ?
Reply: inactive

Query: # outcome recorded in this test, key = CCN(CC)CCCOc1ccc2ncnc(Nc3ccc(Oc4cccc(C(F)(F)F)c4)c(Cl)c3)c2c1
Reply: inactive

Query: Please share the test call associated with CN(Cc1cc(Br)cc(Br)c1O)Cc1cc(Br)cc(Br)c1O .
Reply: inactive

---

System: TK-10 renal
Assay: NCI-60 one-dose screen, 48 h (100 = growth as untreated, 0 = no growth, -100 = all killed)
Details: 10 µM unless noted
Procedure: Growth inhibition of the TK-10 human tumor cell line is measured as a screen for anti-cancer activity. Cells are grown in 96 well plates and exposed to the test compound for 48 hours. Compounds are tested at a single concentration, which is 10^-5 M for most compounds. The reported endpoint is percent growth (GI% or GIPRCNT), where numbers from 0 - 100% represent growth inhibition, and numbers from -100% - 0 represent cell death. For example, a value of 40 represents 60% growth inhibition. […]
About 83,000 compounds went through this panel and 20% of them were active in at least one assay; those are over-represented in the sample as a whole.
Catalogue of growth readings, one per entry.
Express the result in % but write the number alone.

Query: Hi! What's the reported growth for COc1ccc(-c2nc3c(N)c(CO)cnc3s2)cc1 on TK-10 renal?
Reply: 91.9

Query: API: value(readout= growth, system= TK-10 renal, query= COc1ccc2[nH]cc(-c3nc(-c4c[nH]c5c(Cl)nccc45)cs3)c2c1 )
Reply: 49.6

Query: Query growth on TK-10 renal for CN(C)CCCC1(c2ccc(F)cc2)OCc2cc(-c3ccc4cc[nH]c4c3)ccc21 (stereo unspecified)
Reply: 92.9

Query: Field: growth (TK-10 renal). Entry: O=C(CN1CCN(c2cc3c(cc2F)c(=O)c(C(=O)O)cn3C2CC2)CC1)N/N=C/c1ccco1
Reply: 101

Query: Can you look up growth on TK-10 renal for O=C(Nc1ccccc1[N+](=O)[O-])c1ccc(Cl)c(Cl)c1 ?
Reply: 124

Query: Provide the documented growth with TK-10 renal as the system for CCN(CC)CCN1C(=O)c2cccc3c(/C=C/CN4C(=O)c5cccc6cccc(c56)C4=O)ccc(c23)C1=O
Reply: 129

---

test system: OVCAR-4 ovarian; experiment: NCI-60 one-dose screen, 48 h (100 = growth as untreated, 0 = no growth, -100 = all killed); conditions: 10 µM unless noted
The panel holds about 83,000 compounds, 20% with a hit somewhere; the sample as a whole holds those more often.
This section presents molecules with their documented growth values.
Unit % implied. Number only.

Examples with their reported growth follow.
Query: Which measured growth value corresponds to NC(=O)c1c(NC(=O)c2cccc(C(F)(F)F)c2)sc2c1CCC(=O)C2 ?
Reply: -92.2

Query: What value of growth has been recorded for this entry: CC1=C2[C@@H](CC1)[C@]1(C)O[C@@](c3ccccc3)(C[C@H]1OC(=O)CO)[C@H]2OC(=O)/C=C/c1ccccc1
Reply: 5.56

Now take the following molecule into account.
Query: Suppose we examine the molecule O=C1/C(=C/c2ccccc2F)CN(C(=O)C(Cl)Cl)C/C1=C\c1ccccc1F ; what growth value has been reported?
Reply: 14.9

---

tested on: NCI-H23 lung; experiment: NCI-60 one-dose screen, 48 h (100 = growth as untreated, 0 = no growth, -100 = all killed); conditions: 10 µM unless noted
This is part of a sample that, as a whole, favours compounds with a hit. Of some 83,000 tested, about 20% had one in any assay.
REPORTED ENDPOINT: growth (%)
Could you give me the number in %? Just the number is fine.

# count of solved cases: 5
Query: What measured growth goes with COc1ccc(/C=C/C(c2cc(OC)c(OC)c(OC)c2)n2cncn2)cc1 (stereo not drawn) ?
Reply: 67

Query: Endpoint output: growth of C=C(C)[C@@H]1CC[C@]2(COC(C)=O)CC[C@]3(C)[C@H](CC[C@@H]4[C@@]5(C)CCCN(C(C)=O)C(C)(C)[C@@H]5CC[C@]43C)[C@@H]12 . Value?
Reply: 89.2

Query: Param item = O=C(CCSc1nnc2n(Cc3ccccc3)c(=O)c3c4c(sc3n12)CCCC4)N1CCN(c2ccccc2)CC1 ; retrieve measured growth.
Reply: 102

Query: Which measured growth value corresponds to Nc1nc(N)c2c(n1)NC(c1ccc(Cl)cc1)C1CCc3ccccc3C1=N2 (stereo not drawn) ?
Reply: 47.2

Query: What value of growth has been reported for the following compound? CN(C)CCCC1(c2ccc(F)cc2)OCc2cc(-c3ccc4cc[nH]c4c3)ccc21 (stereo not drawn)
Reply: 86.6

New cases:
Query: Which measured growth value corresponds to O=C(Nc1ncc(Cc2cc(C(F)(F)F)ccc2Cl)s1)c1cccs1 ?
Reply: 58.2

Query: I would be grateful if you could share the reported growth for COc1cccc(-c2cc(-c3cccc(Cl)c3)c(C#N)c(=O)[nH]2)c1 .
Reply: 86.7

Query: Any idea what its growth is? The compound is CCOC(=O)C1=C(C)C(Cl)=N/C1=C\c1[nH]c(Cl)c(C)c1C(=O)OCC
Reply: 98.2

Query: Value lookup for growth; key = CC1(C)CC[C@]2(C(=O)N[C@H](CO)Cc3ccccc3)CC[C@]3(C)C(=CC[C@@H]4[C@@]5(C)CCCNC(C)(C)[C@@H]5CC[C@]43C)[C@@H]2C1
Reply: 104

Query: Consider the compound shown here: O=C(Nc1cnc(Nc2ccc(N3CCOCC3)nc2)nc1Oc1ccc(C(F)(F)F)cc1)c1ccncc1 What is its recorded growth?
Reply: 70

Query: Form field: reported growth of COc1ccc(-c2n[nH]c(=O)c3nc(NC(=S)Nc4ccc(Oc5ccccc5)cc4)sc23)cc1
Reply: 99.7

Query: Request the reported growth associated with CCOC(=O)c1nn(CC(O)c2ccccc2)c(NC(=O)Nc2cccc(F)c2)c1C (stereo not drawn)
Reply: 108

Query: Requested field: growth. Item: COc1ccc(/C(C)=C(\c2ccc(Cl)cc2)c2ccc(OCCN3CCCCC3)cc2)cc1
Reply: 57.9

---

system: OVCAR-4 ovarian; assay: NCI-60 one-dose screen, 48 h (100 = growth as untreated, 0 = no growth, -100 = all killed); settings: 10 µM unless noted
About 83,000 compounds went through this panel and 20% of them were active in at least one assay; those are over-represented in the sample as a whole.
Below, each of the molecules is paired with its reported growth value.
Report the figure in % without appending any unit label.

Query: growth; subject: CCOC(=O)c1c(C)nc2ccccc2c1/C=C/c1ccccc1
Reply: 65

---
Query: // lookup growth for Nc1nc(N)c2c(n1)NC(c1cccc(Nc3ccnc4cc(C(F)(F)F)ccc34)c1)CC(c1ccc(Br)cc1)=N2 (stereo not drawn)
Reply: 77.5

Query: // growth lookup, key: O=C1/C=C/[C@@H](O)[C@@H]2C[C@@H](O)C[C@H]2/C=C/CCC[C@H](CCO)O1
Reply: 27.8

Sourced from PubChem BioAssay (NCI)
